Would you kindly list cell viability for each of these compounds?
- System: Caco-2
- Experiment description: cell viability relative to DMSO; higher = less toxic
- Conditions used: 72 h; 1000 nM
Just the number please, in %, no unit attached.

Exercise: Please indicate cell viability recorded for Cn1c(=O)c2c(ncn2CC(O)CO)n(C)c1=O (centres undefined) [dyphylline]
Solution: 98.9

Exercise: Let me know recorded cell viability for CC(=O)Nc1c(I)cc(I)c(C(=O)O)c1I [acetriazoic-acid] , thanks.
Solution: 97.8

Exercise: Using known records, supply cell viability for C#C[C@]1(OC(C)=O)CC[C@H]2[C@@H]3CCC4=CC(=O)CC[C@@H]4[C@H]3CC[C@@]21C [norethindrone-acetate]
Solution: 95

Exercise: Annotate the compound Oc1ccc(C2(c3ccccc3F)CCC(F)(F)CC2)cc1 [AC-186] with its measured cell viability.
Solution: 96.2

Exercise: Output measured cell viability for this item: "CC(C)OC(=O)C1=CN(C(=O)c2ccc(F)c(F)c2)CC(C)(C)c2c1[nH]c1ccccc21"
Solution: 95.2

Exercise: Dear colleague, please send me the reported cell viability for O=C(O[C@H]1[C@H](OC(=O)c2cccnc2)[C@@H](OC(=O)c2cccnc2)[C@H](OC(=O)c2cccnc2)[C@@H](OC(=O)c2cccnc2)[C@H]1OC(=O)c1cccnc1)c1cccnc1 [inositol-hexanicotinate] when you can.
Solution: 89.3

Exercise: Look up and report measured cell viability for this entry: C[C@]12CCC(=O)C=C1CC[C@@H]1[C@@H]2C(=O)C[C@]2(C)C(=O)CC[C@@H]12 [adrenosterone]
Solution: 95

Exercise: Fill in cell viability for record C[C@]12CCC(=O)C=C1C=C[C@@H]1[C@@H]2CC[C@@]2(C)[C@H]1CC[C@@]2(O)CCC(=O)O [potassium-canrenoate]
Solution: 88.9

Exercise: Identify the reported cell viability for the following entry. O=C(O)CCNc1cc(N2CCc3ccccc3CC2)nc(-c2ccccn2)n1 [GSK-J1]
Solution: 99.7

Exercise: Please give the documented cell viability of COc1ccccc1N1CCN(CCn2c(=O)[nH]c3c([nH]c4ccccc43)c2=O)CC1 [3-MPPI]
Solution: 96.1

Exercise: Please report cell viability for the following compound: COC(=O)CCc1ccc(OCC(O)CNC(C)C)cc1 (centres undefined) [esmolol]
Solution: 95.5

Exercise: Give recorded cell viability. O=C(O)CC1CC(c2ccccc2)=NO1 (centres undefined) [VGX-1027]
Solution: 96.1

Exercise: Please report the measured cell viability for CC(C)C[C@@H](NC(=O)[C@H](C)NC(=O)CNC(=O)[C@@H](NC=O)C(C)C)C(=O)N[C@@H](C)C(=O)N[C@@H](C(=O)N[C@H](C(=O)N[C@@H](C(=O)N[C@@H](Cc1c[nH]c2ccccc12)C(=O)N[C@H](CC(C)C)C(=O)N[C@@H](Cc1c[nH]c2ccccc12)C(=O)N[C@H](CC(C)C)C(=O)N[C@@H](Cc1c[nH]c2ccccc12)C(=O)N[C@H](CC(C)C)C(=O)N[C@@H](Cc1c[nH]c2ccccc12)C(=O)NCCO)C(C)C)C(C)C)C(C)C [gramicidin]
Solution: 106

Exercise: Provide only the value of recorded cell viability for CC#C[C@@H](CC(=O)O)c1ccc(OCc2cccc(-c3ccc(C(F)(F)F)cc3)c2)cc1 [AMG-837]
Solution: 94.9

Exercise: Tell me cell viability reported for "O=c1[nH]c2cc(C(F)(F)F)c(N3CCOCC3)cc2n(CP(=O)(O)O)c1=O"
Solution: 106

Exercise: Item CO/N=C1\C[C@]2(C[C@@H]3C[C@@H](C/C=C(\C)C[C@@H](C)/C=C/C=C4\CO[C@@H]5[C@H](O)C(C)=C[C@@H](C(=O)O3)[C@]45O)O2)O[C@H](/C(C)=C/C(C)C)[C@H]1C [moxidectin] : provide cell viability
Solution: 88.2

Exercise: Tell me its cell viability given COC(=O)[C@@H]1CC2=CC(=O)CC[C@]2(C)[C@@]23O[C@@H]2C[C@@]2(C)[C@@H](CC[C@@]24CCC(=O)O4)[C@H]13 [eplerenone] as the entry.
Solution: 92.8

Exercise: Note cell viability for the compound shown: Cc1ccc(Nc2ncc3c(n2)N(C)C(=O)N(c2cc(NC(=O)c4cccc(C(F)(F)F)c4)ccc2C)C3)cn1 [GNF-7]
Solution: 19.3

Exercise: Write down cell viability measured for item O=C(NCCNCC(O)COc1ccc(O)cc1)N1CCOCC1 (centres undefined) [xamoterol]
Solution: 90.3

Exercise: Using known records, supply cell viability for O=C(Nc1cnn2ccc(N3CCC[C@@H]3c3cc(F)ccc3F)nc12)N1CC[C@H](O)C1 [larotrectinib]
Solution: 101

Exercise: Respond only with cell viability recorded for CCOC(=O)c1c(/C(C#N)=C\N)c2ccc(Cl)c(Cl)c2n1C [KH-CB19]
Solution: 99.2

Exercise: Please indicate cell viability recorded for CC1(C)C(/C=C/C=C/C=C/C=C2\N(CCCCS(=O)(=O)O)c3ccc4ccccc4c3C2(C)C)=[N+](CCCCS(=O)(=O)[O-])c2ccc3ccccc3c21 [indocyanine-green]
Solution: 94.8

Exercise: Please give the documented cell viability of "CCOC(=O)C(=O)Nc1cccc(OC)c1C(N)=O"
Solution: 104

Exercise: Give the reported value of cell viability for this record: CC(=O)N1N=C(c2ccc(N)cc2)c2cc3c(cc2C[C@H]1C)OCO3 [talampanel]
Solution: 96.9

Exercise: Identify measured cell viability corresponding to O=C(O)c1ccc2c(c1)nc(Nc1cccc(Cl)c1)c1ccncc12 [CX-4945]
Solution: 95.6

Exercise: Return value of cell viability for input CC(=O)CC/C=C(\C)CC/C=C(\C)CC/C=C(\C)CCC=C(C)C [teprenone] , no commentary.
Solution: 98.6

Exercise: Give cell viability for O=[N+]([O-])/N=C1\NCCN1Cc1ccc(Cl)nc1 [imidacloprid]
Solution: 88.6

Exercise: Dear colleague, please send me the reported cell viability for CC1(C)S[C@@H]2[C@H](N3C(=O)[C@@H](c4ccccc4)NC3(C)C)C(=O)N2[C@H]1C(=O)O [hetacillin] when you can.
Solution: 93.4

Exercise: Give a short answer stating reported cell viability for "C[C@H]1CO[C@@H]2Cn3cc(C(=O)NCc4ccc(F)cc4F)c(=O)c(O)c3C(=O)N12" .
Solution: 98.5
